Biological target: VEGFR2 (Homo sapiens, UniProt P35968)
Construct: purchased ProQinase GmbH
Sequence (P35968 20-1356): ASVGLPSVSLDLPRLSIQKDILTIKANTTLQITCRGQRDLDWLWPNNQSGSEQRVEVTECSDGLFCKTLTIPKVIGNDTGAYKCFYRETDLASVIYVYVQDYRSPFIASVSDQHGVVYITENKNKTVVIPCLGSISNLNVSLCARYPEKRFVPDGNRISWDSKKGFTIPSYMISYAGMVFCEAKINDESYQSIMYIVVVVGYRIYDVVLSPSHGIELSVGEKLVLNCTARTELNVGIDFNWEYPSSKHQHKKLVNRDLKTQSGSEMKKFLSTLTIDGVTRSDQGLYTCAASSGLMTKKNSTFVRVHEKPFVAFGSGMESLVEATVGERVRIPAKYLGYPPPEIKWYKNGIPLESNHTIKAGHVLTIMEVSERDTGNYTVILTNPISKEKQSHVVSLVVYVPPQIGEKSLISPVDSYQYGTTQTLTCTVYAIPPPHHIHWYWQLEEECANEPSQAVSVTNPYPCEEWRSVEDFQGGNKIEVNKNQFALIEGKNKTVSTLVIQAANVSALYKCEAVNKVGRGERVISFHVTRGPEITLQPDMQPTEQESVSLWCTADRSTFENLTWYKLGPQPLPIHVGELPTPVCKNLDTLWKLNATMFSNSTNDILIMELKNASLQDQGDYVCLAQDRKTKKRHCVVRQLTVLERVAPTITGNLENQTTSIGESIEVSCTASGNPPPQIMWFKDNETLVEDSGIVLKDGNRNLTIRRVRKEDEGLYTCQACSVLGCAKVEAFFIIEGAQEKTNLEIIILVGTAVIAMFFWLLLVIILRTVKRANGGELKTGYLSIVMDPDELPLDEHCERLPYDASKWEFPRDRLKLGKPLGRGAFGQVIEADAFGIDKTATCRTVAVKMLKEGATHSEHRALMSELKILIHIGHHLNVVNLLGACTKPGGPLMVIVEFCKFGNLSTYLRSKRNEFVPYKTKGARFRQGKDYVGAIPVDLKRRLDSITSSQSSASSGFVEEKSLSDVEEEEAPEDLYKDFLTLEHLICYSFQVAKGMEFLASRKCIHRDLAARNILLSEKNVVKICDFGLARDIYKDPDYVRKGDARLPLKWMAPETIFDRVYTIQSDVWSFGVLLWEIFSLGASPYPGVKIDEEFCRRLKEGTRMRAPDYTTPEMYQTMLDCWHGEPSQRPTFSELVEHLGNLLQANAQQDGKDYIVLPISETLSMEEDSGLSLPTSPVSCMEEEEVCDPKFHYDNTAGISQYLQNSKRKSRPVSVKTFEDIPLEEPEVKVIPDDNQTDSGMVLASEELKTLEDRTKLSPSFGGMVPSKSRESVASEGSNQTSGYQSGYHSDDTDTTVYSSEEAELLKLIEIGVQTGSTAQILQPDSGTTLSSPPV
Test: Radioactive protein kinase assay (33PanQinase Activity Assay), VEGFR2
Conditions: ATP 1.0 μM (Km), substrate Poly(Glu, Tyr) 4:1, 30° C., 60 minutes; read-out: Biochemical IC50 (nM) VEGFR2
propertyName: IC50 (nM)

Worked examples follow.
molecule	system	IC50 (nM)
COc1cc2c(Oc3ccc(NC(=O)C4(C(=O)Nc5cccc(Cl)c5)CC4)cc3F)ccnc2cc1OCCCCCCC(=O)O	VEGFR2 (Homo sapiens, UniProt P35968)	18.9
COc1cc2c(Oc3ccc(NC(=O)C4(C(=O)Nc5ccc(F)cc5)CC4)cc3F)ccnc2cc1OCCCCCC(=O)O [Example 13]	VEGFR2 (Homo sapiens, UniProt P35968)	12.6
COc1cc2c(Oc3ccc(NC(=O)C4(C(=O)Nc5ccc(F)cc5)CC4)cc3F)ccnc2cc1OCCCC(=O)O [Example 4]	VEGFR2 (Homo sapiens, UniProt P35968)	8.03
COc1cc2c(Oc3ccc(NC(=O)C4(C(=O)Nc5ccc(F)cc5)CC4)cc3F)ccnc2cc1OCCCCC(=O)O [Example 6]	VEGFR2 (Homo sapiens, UniProt P35968)	6.6
COc1cc2c(Oc3ccc(NC(=O)C4(C(=O)Nc5ccc(F)cc5)CC4)cc3F)ccnc2cc1OCCCCCC(=O)O [Example 9]	VEGFR2 (Homo sapiens, UniProt P35968)	16

(P) COc1cc2c(Oc3ccc(NC(=O)C4(C(=O)Nc5ccc(F)cc5)CC4)cc3F)ccnc2cc1OCCCCC(=O)O [Example 8]
(Q) COc1cc2c(Oc3ccc(NC(=O)C4(C(=O)Nc5ccc(F)cc5)CC4)cc3F)ccnc2cc1OCCCCCC(=O)O [Example 10]
(R) COc1cc2c(Oc3ccc(NC(=O)C4(C(=O)Nc5ccc(F)cc5)CC4)cc3F)ccnc2cc1OCC(=O)O
Q. hey, can you rank those molecules up there by IC50? biggest number first please Give the labels in the order specified.
A. R, Q, P

Origin of the recorded values: patent US10723701B2
